These measurements were taken from paper PMC9267968.

For each entry below, report its Ki value.
Target: hCA II (Homo sapiens, UniProt P00918)
Construct: made in house
Experiment: stopped-flow CO2 hydrase assay, hCA II inhibition
Format: biochemical
Conditions: 6 h incubation of enzyme and inhibitor; mean from 3 different assays, errors 5-10%; read-out: KI (nM) CA II
Write the value in nM as a bare number.

Could you please provide reported Ki for COc1ccc2c(c1)OS(=O)(=O)C(C(=O)O)=C2 ? Thanks! 728

Assign Ki to the following record: COc1ccc2c(c1)OS(=O)(=O)C=C2C 8810

---

Target: hCA XII (Homo sapiens, UniProt O43570)
Construct: made in house
Sequence (O43570 25-354): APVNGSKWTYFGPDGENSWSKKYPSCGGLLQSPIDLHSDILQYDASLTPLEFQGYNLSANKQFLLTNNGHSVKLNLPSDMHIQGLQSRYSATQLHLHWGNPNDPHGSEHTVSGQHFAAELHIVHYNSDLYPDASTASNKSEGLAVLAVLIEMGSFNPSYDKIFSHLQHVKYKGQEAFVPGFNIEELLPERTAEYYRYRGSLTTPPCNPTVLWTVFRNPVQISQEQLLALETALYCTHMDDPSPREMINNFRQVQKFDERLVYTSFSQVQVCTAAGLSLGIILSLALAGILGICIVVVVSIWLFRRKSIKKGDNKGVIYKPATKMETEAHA
Assay: biochemical
assayEndpoint: log10 Ki (log10 of the value in µM)
The figures below represent log10 of Ki, where Ki is stated in µM.

Read off the recorded log10 Ki for COc1ccc2c(c1)OS(=O)(=O)C(C(=O)Nc1ccccc1)=C2 [Compound 43] 0.20

Supply recorded log10 Ki for O=C(Nc1ccc(Br)cc1)C1=Cc2ccccc2OS1(=O)=O [Compound 39] here. 1.77

For the compound CCOC(=O)C1=Cc2ccccc2OS1(=O)=O [Compound 34] , give its measured log10 Ki value. 0.41

Note log10 Ki for the compound shown: COc1ccc(NC(=O)C2=Cc3ccccc3OS2(=O)=O)cc1 [Compound 41] 0.93

Please look at this compound and report its log10 Ki: O=C(Nc1cccc(Br)c1)C1=Cc2ccccc2OS1(=O)=O [Compound 40] 1.89
